TARGET ENTITY: PPO2_F383I mutant PPO2 enzyme (Helianthus annuus, UniProt A0A251TWC2, F383I)
Sequence (A0A251TWC2 entry or part of it F383I): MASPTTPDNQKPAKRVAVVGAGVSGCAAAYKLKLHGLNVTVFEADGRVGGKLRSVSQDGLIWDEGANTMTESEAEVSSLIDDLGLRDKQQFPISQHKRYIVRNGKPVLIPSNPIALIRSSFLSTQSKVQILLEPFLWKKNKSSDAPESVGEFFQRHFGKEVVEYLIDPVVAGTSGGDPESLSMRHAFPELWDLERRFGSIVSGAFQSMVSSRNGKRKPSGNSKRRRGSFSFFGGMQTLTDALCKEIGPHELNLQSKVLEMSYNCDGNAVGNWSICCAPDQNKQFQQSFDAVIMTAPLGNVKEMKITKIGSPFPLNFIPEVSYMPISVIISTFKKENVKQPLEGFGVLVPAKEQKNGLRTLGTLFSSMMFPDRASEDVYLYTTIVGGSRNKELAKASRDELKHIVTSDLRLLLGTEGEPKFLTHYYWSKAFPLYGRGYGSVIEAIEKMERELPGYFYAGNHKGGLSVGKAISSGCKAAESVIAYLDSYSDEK
PROTOCOL: In vitro PPO inhibition assay, mutant enzyme (Example 5)
Type: biochemical, sunflower
CONDITION SUMMARY: purified enzyme expressed in E. coli, herbicide 10^-5 M to 10^-11 M; read-out: PPO2_F383I IC50
REPORTED PROPERTY: IC50 (nM)
Provide the reading as a plain figure in nM.

Please give the measured IC50 for this molecule: COC(=O)CCNC(=O)C(C)Sc1cc(-n2c(=O)cc(C(F)(F)F)n(C)c2=O)c(F)cc1Cl (stereo not shown)
1300
